target: GIPR (CHO-K1-hGIPR cells) (Homo sapiens); construct: host or cells: CHO-K1; assay: FACS binding assay; settings: competition with 20 nM GIP-057, 4° C. for 1 hour, read-out: pIC50 Category (converted)
Sequence (P48546 22-466): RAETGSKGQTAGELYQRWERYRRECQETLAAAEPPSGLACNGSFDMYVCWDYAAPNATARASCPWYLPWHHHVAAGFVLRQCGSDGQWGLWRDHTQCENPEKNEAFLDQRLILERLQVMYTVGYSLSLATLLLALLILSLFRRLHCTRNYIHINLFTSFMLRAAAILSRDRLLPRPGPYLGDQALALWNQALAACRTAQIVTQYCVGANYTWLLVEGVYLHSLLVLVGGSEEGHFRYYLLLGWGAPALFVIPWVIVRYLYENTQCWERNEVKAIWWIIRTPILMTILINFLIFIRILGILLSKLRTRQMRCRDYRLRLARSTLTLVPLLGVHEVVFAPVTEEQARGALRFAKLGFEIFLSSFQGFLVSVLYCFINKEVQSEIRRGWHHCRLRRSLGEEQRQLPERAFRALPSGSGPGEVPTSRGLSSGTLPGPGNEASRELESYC
*1 amine or outer side, *2 acyl side, *3 side chain or, on linkers, in order; H or OH if unused. Where a SMILES comes first, the peptide text is derived from it. Bridges are numbered along the chain shown (N, C = ends). [ ]: non-standard residue; d: D form. Maleimide(3,4-diyl) = O=C1NC(=O)C([*:2])=C1[*:1]; Trp(5-Cl) = N[C@@H](Cc1c[nH]c2ccc(Cl)cc12)C(=O)O; Pyridine(2,6-diCH2) = c1cc(C[*:1])nc(C[*:2])c1; mXylylene = c1cc(C[*:1])cc(C[*:2])c1; pXylylene = c1cc(C[*:2])ccc1C[*:1]; Hyp = O=C(O)[C@@H]1C[C@@H](O)CN1; Suc = O=C(CCC(=O)[*:2])[*:1]; hLys = NCCCCC[C@H](N)C(=O)O; Thp = NC1(C(=O)O)CCOCC1; Aib = CC(C)(N)C(=O)O
MEASUREMENT NAME: IC50

CC[C@H](C)[C@@H]1NC(=O)[C@H](CC(C)C)NC(=O)C(C)(C)NC(=O)[C@@H](NC(=O)[C@H](CC(C)C)NC(=O)[C@H](CCC(=O)O)NC(=O)[C@@H]2CCCN2C(=O)[C@H](Cc2c[nH]c3ccccc23)NC(=O)[C@H](Cc2c[nH]c3ccccc23)NC(=O)CCC(=O)O)CSCc2cccc(c2)CSC[C@@H](C(N)=O)NC1=O [GIP-259] (Suc-WWPELC[Aib]LIC-NH2; linker 6-10 via mXylylene) = 10 to 79.4 nM
CC[C@H](C)[C@@H]1NC(=O)[C@H](CC(C)C)NC(=O)[C@H](C)NC(=O)[C@@H](NC(=O)[C@H](CC(C)C)NC(=O)[C@H](CCC(=O)O)NC(=O)[C@@H]2CCCN2C(=O)[C@H](Cc2c[nH]c3ccccc23)NC(=O)[C@H](Cc2c[nH]c3ccccc23)NC(=O)[C@H](CC(=O)O)NC(=O)[C@@H](Cc2ccc(O)cc2)NC(=O)[C@@H](N)CCSC)CSCc2cccc(c2)CSC[C@@H](C(N)=O)NC1=O [GIP-246] (H-M[dY]DWWPELCALIC-NH2; linker 9-13 via mXylylene) = 10 to 79.4 nM
CC[C@H](C)[C@@H]1NC(=O)[C@H](CC(C)C)NC(=O)C2(CCOCC2)NC(=O)[C@@H](NC(=O)[C@@H](CC(C)C)NC(=O)[C@H](CCC(=O)O)NC(=O)[C@@H]2C[C@@H](O)CN2C(=O)[C@H](Cc2c[nH]c3ccc(Cl)cc23)NC(=O)[C@H](Cc2c[nH]c3ccccc23)NC(=O)[C@H](CC(=O)O)NC(C)=O)CSC2=C(SC[C@@H](C(N)=O)NC1=O)C(=O)NC2=O [GIP-360] (Ac-DW[Trp(5-Cl)][Hyp]E[dL]C[Thp]LIC-NH2; linker 7-11 via Maleimide(3,4-diyl)) = < 10 nM
CC[C@H](C)[C@@H]1NC(=O)[C@H](CC(C)C)NC(=O)[C@H](C)NC(=O)[C@@H](NC(=O)[C@H](CC(C)C)NC(=O)[C@H](CCC(=O)O)NC(=O)[C@@H]2CCCN2C(=O)[C@H](Cc2c[nH]c3ccccc23)NC(=O)[C@H](Cc2c[nH]c3ccccc23)NC(=O)[C@H](CC(=O)O)NC(=O)[C@H](Cc2ccc(O)cc2)NC(=O)[C@@H](N)CCSC)CSCc2ccc(cc2)CSC[C@@H](C(N)=O)NC1=O [GIP-331] (H-MYDWWPELCALIC-NH2; linker 9-13 via pXylylene) = > 1000 nM
CC[C@H](C)[C@@H]1NC(=O)[C@H](CC(C)C)NC(=O)C2(CCOCC2)NC(=O)[C@@H](NC(=O)[C@@H](CC(C)C)NC(=O)[C@H](CCCCCN)NC(=O)[C@@H]2C[C@@H](O)CN2C(=O)[C@H](Cc2c[nH]c3ccc(Cl)cc23)NC(=O)[C@H](Cc2c[nH]c3ccccc23)NC(=O)[C@H](CC(=O)O)NC(C)=O)CSCc2cccc(n2)CSC[C@@H](C(N)=O)NC1=O [GIP-378] (Ac-DW[Trp(5-Cl)][Hyp][hLys][dL]C[Thp]LIC-NH2; linker 7-11 via Pyridine(2,6-diCH2)) = < 10 nM
